Quick reference: fold change in fluorescence relative to zaprinast alone of the listed items.
- Test system: GCaMP5-expressing T. gondii
- Construct: whole extracellular parasites expressing GCaMP5 Ca2+ sensor
- Parameters: species or system GCaMP5-expressing Toxoplasma gondii, extracellular; GCaMP5 fluorescence (cytosolic Ca2+) after 100 uM zaprinast in compound-pretreated extracellular parasites, background-subtracted, relative to zaprinast alone
- TEST PARAMETERS: 100 uM zaprinast stimulation; 10 min pretreatment; mean of two replicates; 0.23 h
Number, no unit, nothing else.

Illustrative cases are given below, each with its answer.
Cc1ccc(NC(=O)c2ccoc2)cc1-c1ccc(C(=O)NCC2CC2)cc1 [GW743024X] | 1.222
COc1cccc(-n2ncc3c(N/N=C/c4ccc(C)cc4)ncnc32)c1 [GW829877X] | 1.18
COc1cccc(-n2ncc3c(N/N=C/c4cccc(F)c4)ncnc32)c1 [GW817394X] | 1.201
Nc1nc(-c2ccc3c(N)n[nH]c3c2)cc(N2CCCCC2)n1 [GSK2228768A] | 0.9677
NS(=O)(=O)c1ccc(N/N=C2\C(=O)Nc3ccc(-c4cnco4)cc32)cc1 [GW276655X] | 1.083

Here's the next entry for you.
// query // returns reported fold change in fluorescence relative to zaprinast alone for input CN1C(=O)C(Nc2cc(Cl)c(O)c(Cl)c2)=C(c2ccc(Cl)cc2)C1=O
// result 1.253

----------
- Tested on: GCaMP5-expressing T. gondii
- Construct: whole extracellular parasites expressing GCaMP5 Ca2+ sensor
- Design: species or system GCaMP5-expressing Toxoplasma gondii, extracellular; GCaMP5 fluorescence (cytosolic Ca2+) after 100 uM zaprinast in compound-pretreated extracellular parasites, background-subtracted, relative to zaprinast alone
- TEST PARAMETERS: 100 uM zaprinast stimulation; 10 min pretreatment; mean of two replicates; 0.23 h
This section presents compounds with their documented fold change in fluorescence relative to zaprinast alone values.
Lab note: jot down the number only; don't add units.

COC(=O)Nc1nc2ccc(Oc3ccc(CC(=O)Nc4cc(C(F)(F)F)ccc4F)cc3)cc2[nH]1 [GW680903X] | 1.756
Cn1cncc1-c1ccc2ncnc(Nc3ccc(OCc4ccccc4)cc3)c2c1 [GW320571X] | 0.8423
NS(=O)(=O)c1ccc(N/N=C2\C(=O)Nc3ccc4ncccc4c32)cc1 [GW305178X] | 0.9853
Nc1cccc(-c2ccc3c(N)n[nH]c3c2)c1 [GSK2193613A] | 0.7898
Nc1ncc(-c2cn[nH]c2)c2scc(-c3ccc4c(c3)CCN4C(=O)Cc3ccccc3)c12 [GSK2593067A] | 1.414

// query Fill in: fold change in fluorescence relative to zaprinast alone of Nc1nccc(-c2c(-c3ccc(F)cc3)ncn2C2CCN(CC(F)(F)F)CC2)n1 [SB-236560] is ___
// result 0.7968

// query Suppose we examine the compound COc1cccc(OC)c1C(=O)Nc1cccc(-c2nn3ccccc3c2-c2ccnc(Nc3cccc(F)c3)n2)c1 [GSK361065A] ; what fold change in fluorescence relative to zaprinast alone value has been reported?
// result 0.9782

// query fold change in fluorescence relative to zaprinast alone for COc1ccc(CNC(=O)NC2CCN(c3ccnc(Nc4ccc(F)cc4)n3)C2)cc1 (stereo not drawn) [GSK1379706A] ?
// result 0.6471

// query Need fold change in fluorescence relative to zaprinast alone, item COc1cc2ncnc(Nc3ccc(OCc4ccccc4Br)c(Cl)c3)c2cc1OC [GI261590A]
// result 1.09

// query What value of fold change in fluorescence relative to zaprinast alone has been recorded for this entry: COc1cc(Nc2nccc(Nc3ccc4c(C)n[nH]c4c3)n2)cc(OC)c1OC [GW612286X]
// result 0.875

// query fold change in fluorescence relative to zaprinast alone lookup needed for Nc1nonc1-c1nc2cnccc2n1C1CCCCC1 [SB-734117] , thanks.
// result 1.214

// query Entry CC1=C(C(=O)Nc2ccc3[nH]nc(C)c3c2)C(c2ccc(C(F)(F)F)cc2)CC(=O)N1 (stereo not drawn) [GSK466314A] has what fold change in fluorescence relative to zaprinast alone?
// result 1.189

----------
Entries and their fold change in fluorescence relative to zaprinast alone values follow.
- Test system: GCaMP5-expressing T. gondii
- Construct: whole extracellular parasites expressing GCaMP5 Ca2+ sensor
- Design: species or system GCaMP5-expressing Toxoplasma gondii, extracellular; GCaMP5 fluorescence (cytosolic Ca2+) after 100 uM zaprinast in compound-pretreated extracellular parasites, background-subtracted, relative to zaprinast alone
- TEST PARAMETERS: 100 uM zaprinast stimulation; 10 min pretreatment; mean of two replicates; 0.23 h

// query Request the reported fold change in fluorescence relative to zaprinast alone associated with COc1cccc(-c2nc(-c3ccccc3)[nH]c2-c2ccncc2)c1 [SB-610250]
// result 0.7579

// query Dear colleague, I am looking for the recorded fold change in fluorescence relative to zaprinast alone of the following molecule: Cc1cccc(Nc2nc(NCCN)ncc2C(N)=O)c1 [GSK1292139B]
// result 0.903

// query Item under review: Clc1ccc(-c2nn3ncccc3c2-c2ccnc(Nc3ccc4c(c3)OCCO4)n2)cc1 [GW829116X] . Reported fold change in fluorescence relative to zaprinast alone?
// result 0.6156

// query Quick check: fold change in fluorescence relative to zaprinast alone of Cc1ccccc1-c1cc(-c2cn[nH]c2-c2ccccn2)ccn1 [GW680061X] ?
// result 0.8106

// query Give its fold change in fluorescence relative to zaprinast alone value. Item: CCCCCc1nc2c(N)ncnc2n1CCCCC [SKF-97255]
// result 0.8987

// query Field request: fold change in fluorescence relative to zaprinast alone | item: O=C(O[C@H]1CN[C@H](C#Cc2cc3ncnc(Nc4ccc(Cc5ccccc5)cc4)c3s2)C1)N1CCOCC1 [GSK238583A]
// result 1.249

// query Give its fold change in fluorescence relative to zaprinast alone value. Item: NC(=O)Cc1ccccc1Oc1nccc(-c2c(-c3ccc(F)cc3)ncn2C2CCNCC2)n1 [SB-264865]
// result 1.313

// query Request the reported fold change in fluorescence relative to zaprinast alone associated with Cc1ccc(C(=O)Nc2ccc(Nc3ccnc4cc(-c5ccccn5)ccc34)cc2O)cc1 [GW440146A]
// result 2.166

// query Name the recorded fold change in fluorescence relative to zaprinast alone for COc1cccc(CNC(=O)NC2CCN(c3ccnc(Nc4ccc(F)cc4)n3)C2)c1 (stereo not drawn) [GSK1379723A] .
// result 0.5252

// query Consider the molecule shown here: Cc1ccccc1CC(=O)N1CCc2cc(-c3cn(C)c4ncnc(N)c34)ccc21 [GSK2603346A] What is its recorded fold change in fluorescence relative to zaprinast alone?
// result 1.278

// query I'd like to know its fold change in fluorescence relative to zaprinast alone. The molecule in question is COC(=O)Nc1nc2ccc(Oc3ccc(NC(=O)Nc4cccc(Cl)c4)cc3)cc2[nH]1 [GW589961A]
// result 1.185

// query Endpoint output: fold change in fluorescence relative to zaprinast alone of CCS(=O)(=O)c1ccc(OC)c(Nc2ncc(-c3cccc(C(C)=O)c3)o2)c1 [GW621431X] . Value?
// result 1.216

----------
- Tested on: GCaMP5-expressing T. gondii
- Construct: whole extracellular parasites expressing GCaMP5 Ca2+ sensor
- Design: species or system GCaMP5-expressing Toxoplasma gondii, extracellular; GCaMP5 fluorescence (cytosolic Ca2+) after 100 uM zaprinast in compound-pretreated extracellular parasites, background-subtracted, relative to zaprinast alone
- TEST PARAMETERS: 100 uM zaprinast stimulation; 10 min pretreatment; mean of two replicates; 0.23 h
QUANTITY MEASURED: fold change in fluorescence relative to zaprinast alone
Lab note: jot down the number only; don't add units.

// solved cases for fold change in fluorescence relative to zaprinast alone follow
NS(=O)(=O)c1ccc(N/N=C2\C(=O)Nc3ccc(C(=O)NCCCn4ccnc4)cc32)cc1 [GW290597X] | 1.214
Fc1ccc(-c2ncn(CCCN3CCOCC3)c2-c2ccncc2)cc1 [SB-210313] | 1.039
O=C(Nc1n[nH]c2nc(-c3nccs3)c(Br)cc12)C1CC1 [SB-742251] | 1.325

// query Tell me reported fold change in fluorescence relative to zaprinast alone for Cc1ccn2nc(-c3ccc(F)cc3)c(-c3ccncc3)c2c1 [GW457859A] , tested with GCaMP5-expressing T. gondii.
// result 0.07245

----------
- Test system: GCaMP5-expressing T. gondii
- Construct: whole extracellular parasites expressing GCaMP5 Ca2+ sensor
- Set-up: species or system GCaMP5-expressing Toxoplasma gondii, extracellular; GCaMP5 fluorescence (cytosolic Ca2+) after 100 uM zaprinast in compound-pretreated extracellular parasites, background-subtracted, relative to zaprinast alone
- TEST PARAMETERS: 100 uM zaprinast stimulation; 10 min pretreatment; mean of two replicates; 0.23 h
Where fold change in fluorescence relative to zaprinast alone equals or exceeds 1, the correct label is Satisfied; where it does not, the label is Not satisfied.

CCOc1nccc(-c2c(-c3ccc(F)cc3)ncn2C2CCNCC2)n1 | Not satisfied
COc1ccc(C2=NC(c3ccc(Cl)cc3F)C(C(=O)Nc3ccc4[nH]ncc4c3)=C(C)N2)cn1 (centres unmarked) [GSK534913A] | Satisfied
Cn1cc(-c2ccc3c(c2)CCN3C(=O)Cc2ccccc2Cl)c2c(N)ncnc21 [GSK2608885A] | Satisfied

// query Please tell me: is the molecule COc1cccc(CC(=O)N2CCc3cc(-c4cn(C)c5ncnc(N)c45)ccc32)c1 [GSK2608899A] at or over 1 in terms of fold change in fluorescence relative to zaprinast alone?
// result Not satisfied

// query Is reported fold change in fluorescence relative to zaprinast alone greater than or equal to 1 here: [O-][S+]1CCN(Cc2ccc(-c3ccc4ncnc(Nc5ccc(OCc6ccccc6)c(Cl)c5)c4c3)o2)CC1 [GW583373A]
// result Not satisfied

// query fold change in fluorescence relative to zaprinast alone >= 1 for COc1cccc(C2=C(N(C)c3ccccc3)C(=O)NC2=O)c1 ?
// result Not satisfied

// query Form field: fold change in fluorescence relative to zaprinast alone at least 1? Entry: Cc1cccc2c1NC(=O)/C2=N\Nc1ccc(S(N)(=O)=O)cc1 [GW282536X]
// result Satisfied

// query Given the entry Cc1ccc(NC(=O)c2cccc(C#N)c2)cc1-c1ccc(C(=O)Nc2ccncc2)cc1 [GSK1398463A] , answer whether its fold change in fluorescence relative to zaprinast alone meets or surpasses 1.
// result Satisfied

// query Threshold query (fold change in fluorescence relative to zaprinast alone >= 1) on OCc1ccc(-c2nc(-c3ccc4c(c3)OCO4)c(-c3ccccn3)[nH]2)cc1
// result Satisfied

// query Could you tell me if the measured fold change in fluorescence relative to zaprinast alone of Cc1ccc(NC(=O)c2ccnc(N3CCN(C)CC3)c2)cc1-c1ccc(C(=O)NCC2CC2)cc1 [GW775604X] reaches 1 or more?
// result Satisfied

// query fold change in fluorescence relative to zaprinast alone >= 1 for CN1CCC(n2cnc(-c3ccc(F)cc3)c2-c2ccnc(NC3CCNCC3)n2)CC1 ?
// result Not satisfied

// query Could you please find out whether CC(=O)Nc1ccc(COc2ccc(Nc3ccnc4cc(-c5ccccn5)ccc34)cc2)cc1 [GW440148A] has fold change in fluorescence relative to zaprinast alone that meets 1 or exceeds it?
// result Satisfied

// query # check: fold change in fluorescence relative to zaprinast alone of COc1cccc(-n2ncc3c(N/N=C/c4ccc(S(C)(=O)=O)cc4)ncnc32)c1 [GW811168X] is greater than or equal to 1
// result Not satisfied

// query # bool: fold change in fluorescence relative to zaprinast alone of c1ccc(-c2[nH]ncc2-c2ccnc(-c3ccc(CNC4CCOCC4)cc3)c2)nc1 [GW709213X] >= 1
// result Satisfied

// query State whether the measured fold change in fluorescence relative to zaprinast alone reaches 1, counting equality as reaching it, for COc1ccc(Nc2nccc(N3CCC(NC(=O)c4cccc(NC(C)=O)c4)C3)n2)cc1 (centres unmarked) [GSK1379732A]
// result Satisfied

Each recorded value in this set is attributed to paper PMC4850295.
